- tested on: human RORγ-LBD (Homo sapiens)
- Construct: made in house; host or cells: E. coli (BL-21)
- Sequence (P51449 262-518): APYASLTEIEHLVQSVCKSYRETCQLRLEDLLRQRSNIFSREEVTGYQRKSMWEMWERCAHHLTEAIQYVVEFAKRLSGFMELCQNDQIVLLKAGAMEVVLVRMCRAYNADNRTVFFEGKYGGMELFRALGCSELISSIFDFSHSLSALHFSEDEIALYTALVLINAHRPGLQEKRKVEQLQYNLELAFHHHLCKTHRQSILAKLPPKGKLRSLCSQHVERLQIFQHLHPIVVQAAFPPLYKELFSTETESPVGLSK
- experiment notes: ROR gamma coactivator peptide recruitment Alphascreen assay (RORγ-LBD binding to GRIP1 coactivator peptide)
- Format: biochemical
- measurement context: 5 nM human RORγ-LBD, 30 nM 7-β-hydroxycholesterol, 50 nM biotinylated GRIP1 coactivator peptide, overnight incubation at room temperature; read-out: result (pIC50, RORγ coactivator peptide recruitment Alphascreen assay) (converted)
IC50 strictly less than 200 nM = label 1. Otherwise label 0.

I wonder whether CC1(C)CC[C@H]1N(CC(=O)c1c(Cl)cncc1Cl)C(=O)c1cnn([C@H]2CC[C@@H](C(=O)O)CC2)c1C(F)(F)F has IC50 below 200 nM. Can you tell? label 0

Could you please tell me whether IC50 recorded for CC1(CN(CC(=O)c2c(Cl)cccc2Cl)C(=O)c2cnn([C@H]3CC[C@](C)(C(=O)O)CC3)c2C(F)(F)F)CC1 is less than 200 nM? label 1

Find out if reported IC50 for CC1(C)C[C@@H]1N(CC(=O)c1c(Cl)cncc1Cl)C(=O)c1cnn([C@H]2CC[C@H](C(=O)O)CC2)c1C(F)(F)F is less than 200 nM label 1

Item Cc1cc(Cl)c(C(=O)CN(CC2CC3(CC3)C2)C(=O)c2cnn([C@H]3CC[C@@H](C(=O)O)CC3)c2C(F)(F)F)c(Cl)c1 : IC50 beneath 200 nM, strictly? label 1

---

- tested on: human RORγ-LBD (Homo sapiens, UniProt P51449)
- Construct: made in house; host or cells: E. coli (BL-21)
- Sequence (P51449 262-518): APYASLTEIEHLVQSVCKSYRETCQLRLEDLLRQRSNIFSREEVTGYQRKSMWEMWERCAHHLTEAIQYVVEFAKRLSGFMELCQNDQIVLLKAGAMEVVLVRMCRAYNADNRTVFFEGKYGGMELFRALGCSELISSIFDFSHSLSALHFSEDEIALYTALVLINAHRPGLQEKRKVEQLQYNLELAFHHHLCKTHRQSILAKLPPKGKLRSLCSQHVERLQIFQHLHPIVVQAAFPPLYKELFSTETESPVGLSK
- experiment notes: ROR gamma coactivator peptide recruitment Alphascreen assay (RORγ-LBD binding to GRIP1 coactivator peptide)
- Format: biochemical
- measurement context: 5 nM human RORγ-LBD, 30 nM 7-β-hydroxycholesterol, 50 nM biotinylated GRIP1 coactivator peptide, overnight incubation at room temperature; read-out: result (pIC50, RORγ coactivator peptide recruitment Alphascreen assay) (converted)
Labelling: IC50 reported below 4 nM becomes 1 (yes); at or above becomes 0 (no).

Find out if reported IC50 for C[C@]1(C(=O)O)CC[C@H](n2ncc(C(=O)N(CC(=O)c3c(Cl)cncc3Cl)[C@H]3CCC34CCC4)c2C(F)(F)F)CC1 [Example 748] is less than 4 nM 1 (yes)

Does the reported IC50 of COc1cccc(F)c1C(=O)CN(CC1(F)CCCC1)C(=O)c1cnn([C@H]2CC[C@](C)(C(=O)O)CC2)c1C(F)(F)F [Example 608] stay below 4 nM? 0 (no)

Confirm or reject: IC50 of Cc1cc(Cl)c(CCN(CC(C)(C)C)C(=O)c2cnn([C@H]3CC[C@](C)(C(=O)O)CC3)c2C(F)(F)F)c(Cl)c1 [Example 515] lies strictly below 4 nM 0 (no)

I'd appreciate it if you could check whether CC1(CN(CC(=O)c2c(Cl)cncc2Cl)C(=O)c2cnn([C@H]3CC[C@](C)(C(=O)O)CC3)c2C(F)(F)F)CCCC1 [Example 711] has IC50 smaller than 4 nM. 1 (yes)

Confirm or reject: IC50 of CC(C)(C)CN(CC(=O)c1c(Cl)cncc1Cl)C(=O)c1cnn([C@H]2CC[C@](C)(CC(=O)O)CC2)c1C(F)(F)F [Example 791] lies strictly below 4 nM 0 (no)

Please check: IC50 for CC1(C)CC[C@H](CN(CC(=O)c2c(Cl)cncc2Cl)C(=O)c2cnn([C@H]3CC[C@](C)(C(=O)O)CC3)c2C(F)(F)F)O1 [Example 674] , strictly under 4 nM or not? 0 (no)

---

Consider the following molecules; for each one, report its IC50.
- tested on: human RORγ-LBD (Homo sapiens)
- Construct: made in house; host or cells: E. coli (BL-21)
- experiment notes: ROR gamma coactivator peptide recruitment Alphascreen assay (RORγ-LBD binding to GRIP1 coactivator peptide)
- Type: biochemical
- measurement context: 5 nM human RORγ-LBD, 30 nM 7-β-hydroxycholesterol, 50 nM biotinylated GRIP1 coactivator peptide, overnight incubation at room temperature; read-out: result (pIC50, RORγ coactivator peptide recruitment Alphascreen assay) (converted)

State the recorded IC50 for this entry: C[C@]1(C(=O)O)CC[C@H](n2ncc(C(=O)N(CC(=O)c3c(Cl)cncc3Cl)CC3CC3)c2C(F)(F)F)CC1 27.5 nM

Look up IC50 for this molecule: CC1(CN(CCc2c(Cl)cncc2Cl)C(=O)c2cnn([C@H]3CC[C@](C)(C(=O)O)CC3)c2C(F)(F)F)CC1 4.17 nM

Which IC50 value is on record for Cc1cc(Cl)c(C(=O)CN(CC(C)(C)C)C(=O)c2cnn([C@H]3CC[C@H](C(=O)O)CC3)c2C(F)(F)F)c(Cl)c1 ? 25.1 nM

Consider the molecule shown here: C[C@]1(C(=O)O)CC[C@H](n2ncc(C(=O)N(CC(=O)c3c(Cl)cncc3Cl)[C@@H]3CCC34CCC4)c2C(F)(F)F)CC1 What is its recorded IC50? 60.3 nM

Need IC50, item CC(C)(C)CN(CCc1c(Cl)c[nH]c(=O)c1Cl)C(=O)c1cnn([C@H]2CC[C@](C)(C(=O)O)CC2)c1C(F)(F)F 741 nM

Form field: reported IC50 of Cc1cc(Cl)c(CCN(CC(C)(C)C)C(=O)c2cnn(C3CCC(C(=O)O)CC3)c2C(F)(F)F)c(Cl)c1 (stereo in doubt) 7.24 nM

Request the reported IC50 associated with CC1C[C@@H](n2ncc(C(=O)N(CC(=O)c3c(Cl)cncc3Cl)CC(C)(C)C)c2C(F)(F)F)CC[C@]1(C)C(=O)O (stereo in doubt) 4.79 nM

For the molecule Cc1cc(Cl)c(C(=O)CN(C(=O)c2cnn([C@H]3CC[C@H](CC(=O)O)CC3)c2C(F)(F)F)[C@H]2C[C@@H]3[C@H](C2)C3(C)C)c(Cl)c1 , what IC50 is on record? 1.58 nM

Endpoint output: IC50 of Cc1cc(Cl)c(C(=O)CN(CC2CCCCC2)C(=O)c2cnn([C@H]3CC[C@@H](C(=O)O)CC3)c2C(F)(F)F)c(Cl)n1 . Value? 10 nM

Would you kindly share the measured IC50 for CC1(C)C[C@H]1CN(CC(=O)c1c(Cl)cncc1Cl)C(=O)c1cnn([C@H]2CC[C@](C)(C(=O)O)CC2)c1C(F)(F)F ? 2.24 nM

---

- tested on: ligand binding domain of human ROR gamma (Homo sapiens, UniProt P51449)
- Construct: NM_001001523; expressed in transfected cells; host or cells: HEK293T
- experiment notes: ROR gamma reporter gene assay (GAL4-RORγ LBD luciferase, Dual-Glo)
- Assay type: cell-based
- measurement context: HEK293T cells transfected with pM-ROR gamma, 8 concentrations 3.5 nM to 10.5 μM, 24 h incubation; read-out: result (pIC50, inhibition of RORγ transcriptional activity) (converted)
Record form. Attribute: log10(IC50). Fill in for each entry.
Hello, just confirming the data are log10 of IC50 with units of pM.

Fill in: log10(IC50) of O=C(CN(Cc1ccc(F)cc1)C(=O)c1cnn([C@H]2CC[C@](F)(C(=O)O)CC2)c1C(F)(F)F)c1c(Cl)cncc1Cl [Example 81] is ___ 4.97

# input compound: CC(C)(C)C#CCN(CC(=O)c1c(Cl)cncc1Cl)C(=O)c1cnn([C@H]2CC[C@H](C(=O)O)CC2)c1C(F)(F)F [Example 110] ; wanted: its log10(IC50) 5.21

What value of log10(IC50) has been recorded for this entry: CC(C)(C)c1c(C(=O)N(CC(=O)c2c(Cl)cncc2Cl)Cc2cc(F)cc(F)c2)cnn1[C@H]1CC[C@H](C(=O)O)CC1 [Example 148] 5.68

Give its log10(IC50) value. Item: CC(C)(C)CN(CC(=O)c1c(Cl)cncc1Cl)C(=O)c1cnn([C@H]2CC[C@H](C(=O)O)CC2)c1C(F)(F)F [Example 27] 4.75

log10(IC50) for CC1(C)CCC(N(CC(=O)c2c(Cl)cc(F)cc2Cl)C(=O)c2cnn([C@H]3C[C@](C)(C(=O)O)C3)c2C(F)(F)F)CC1 [Example 339] ? 4.92

// log10(IC50) lookup, key: CC1(C)[C@@H]2C[C@H](N(CCc3c[nH]c4cncc(Cl)c34)C(=O)c3cnn([C@H]4CC[C@](C)(C(=O)O)CC4)c3C(F)(F)F)C[C@@H]21 [Example 380] 4.92

Any idea what its log10(IC50) is? The compound is COc1ccccc1[C@@H](O)CN(C(=O)c1cnn([C@H]2CC[C@](C)(C(=O)O)CC2)c1C(F)(F)F)[C@H]1C[C@@H]2[C@H](C1)C2(C)C [Example 370] 5.73

GET /values?readout=log10(IC50)&item= CC(C)(C)CN(CC(=O)c1c(Cl)cc(Cl)cc1Cl)C(=O)c1cnn(C23CCC(C(=O)O)(CC2)CC3)c1C(F)(F)F [Example 246] 4.06

Requested read-out: log10(IC50). Entry: COc1cccc(Cl)c1[C@H](O)CN(C(=O)c1cnn([C@H]2CC[C@](C)(C(=O)O)CC2)c1Cl)[C@H]1C[C@@H]2[C@H](C1)C2(C)C [Example 375] 5.03

Would you kindly share the measured log10(IC50) for O=C(CN(Cc1ccc(F)cc1)C(=O)c1cnn([C@H]2C[C@H](C(=O)O)C2)c1C(F)(F)F)c1c(Cl)cncc1Cl [Example 82] ? 4.91

Tell me the measured log10(IC50) of CC(C)(C)CN(CC(=O)c1c(Cl)cccc1Cl)C(=O)c1cnn([C@H]2CC[C@](C)(C(=O)O)CC2)c1C(F)(F)F [Example 284] , please. 4.05

So what does the record say about log10(IC50) for O=C(CN(Cc1cc(F)cc(F)c1)C(=O)c1cnn([C@H]2CC[C@H](C(=O)O)CC2)c1C(F)(F)F)c1c(Cl)cc(Cl)cc1Cl [Example 56] ? 4.19

Return reported log10(IC50); argument: CCC(C)(C)CN(CC(=O)c1c(Cl)cncc1Cl)C(=O)c1cnn([C@H]2CC[C@](C)(C(=O)O)CC2)c1C(F)(F)F [Example 286] 3.96

Which log10(IC50) value belongs to CC(=O)Nc1cccc(Cl)c1C(=O)CN(Cc1cc(F)cc(F)c1)C(=O)c1cnn([C@H]2CC[C@H](C(=O)O)CC2)c1C(F)(F)F [Example 13] ? 4.97
